tested.on: Retinal dehydrogenase 2 (Gallus gallus, UniProt O93344)
Sequence (O93344 whole entry): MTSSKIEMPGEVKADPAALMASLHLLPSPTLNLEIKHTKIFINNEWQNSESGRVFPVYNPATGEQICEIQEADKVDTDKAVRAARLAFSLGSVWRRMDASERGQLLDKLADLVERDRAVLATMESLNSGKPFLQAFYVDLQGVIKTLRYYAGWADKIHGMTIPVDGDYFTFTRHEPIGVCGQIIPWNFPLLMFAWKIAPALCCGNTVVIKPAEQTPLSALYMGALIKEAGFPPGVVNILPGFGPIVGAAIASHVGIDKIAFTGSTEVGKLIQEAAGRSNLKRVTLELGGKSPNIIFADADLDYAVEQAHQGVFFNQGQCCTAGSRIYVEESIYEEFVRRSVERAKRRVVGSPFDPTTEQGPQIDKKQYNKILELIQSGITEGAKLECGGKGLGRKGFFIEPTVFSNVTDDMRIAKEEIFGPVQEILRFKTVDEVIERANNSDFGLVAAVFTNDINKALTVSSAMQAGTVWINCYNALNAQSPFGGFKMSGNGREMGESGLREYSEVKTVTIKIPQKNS
protocol.notes: Inhibition of N-terminal His6-tagged recombinant chick RALDH2 expressed in Escherichia coli BL21(DE3) cells using RAL as substrate preincubated for 20 mins followed by substrate addition and measured after 30 mins in presence of NADH by fluorescence assay
measurement.kind: IC50 (nM)
Give bare numbers, in nM.

Lookup result for `CC1=C(/C=C/C(C)=C/C=C/C(C)=C/C(=O)C(Cl)Cl)C(C)(C)CCC1` ; measured IC50: 55
